- Target Desc: MAGI2_2, Q86UL8
- Sequence (Q86UL8 410-522): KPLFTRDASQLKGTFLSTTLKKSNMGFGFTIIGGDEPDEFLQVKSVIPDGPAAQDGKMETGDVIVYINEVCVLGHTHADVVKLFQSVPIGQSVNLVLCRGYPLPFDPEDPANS
- Measurement Notes: holdup assay
- Set-up: key: below the threshold = too weak to quantify, mostly under pKd 3.1 to 4
- Condition Set: plain residues with an end cap or a label only (N-terminal biotin on a linker: ado-ado)
Experimental Endpoint: pKd

>>> observed_result("QKNRKAQEDL [CES3, Q6UWW8]")
"below the threshold"
>>> observed_result("YRLAQESGLV [ABCC6, O95255]")
"below the threshold"
>>> observed_result("LPAHHNATRL [SLC34A1, Q06495]")
3.87
>>> observed_result("QSLNRMEYIV [JAG1, P78504]")
3.91
>>> observed_result("RRLPGKETMA [GRIK2, Q13002]")
"below the threshold"
>>> observed_result("TASPAKETSF [SLC2A7, Q6PXP3]")
"below the threshold"
>>> observed_result("GSGAVEMESV [AQP6, Q13520]")
"below the threshold"
>>> observed_result("GQEEQVTTRL [TRPC5, Q9UL62]")
"below the threshold"
>>> observed_result("PAPSSGKDYV [CLDN1, O95832]")
"below the threshold"
>>> observed_result("MLSKQSESAI [FLVCR1, Q9Y5Y0]")
3.8
>>> observed_result("YNNCLEILRV [DCAF7, P61962]")
"below the threshold"
>>> observed_result("RHGSCVETSL [TMEM151B, Q8IW70]")
3.66
>>> observed_result("HLRARKSEWV [GJD4, Q96KN9]")
"below the threshold"
>>> observed_result("VRNLPESEEL [MYOZ3, Q8TDC0]")
"below the threshold"
>>> observed_result("DDENIRTSDV [PLEKHA2, Q9HB19]")
"below the threshold"
>>> observed_result("GNSVLKSTQF [SLC22A12, Q96S37]")
"below the threshold"
>>> observed_result("TPPAAKKSRI [BAZ1A, Q9NRL2]")
"below the threshold"
>>> observed_result("IKAIVDLTGL [TRAF2, Q12933]")
"below the threshold"
>>> observed_result("PEYLGLDVPV [ERBB2, P04626]")
"below the threshold"
>>> observed_result("YYKRPVQEWV [MMP24, Q9Y5R2]")
"below the threshold"
>>> observed_result("LGRSTPQSEV [DGKH, Q86XP1]")
3.58
>>> observed_result("RKPKPSSSCC [RAB9A, P51151]")
"below the threshold"
>>> observed_result("CLREWCDAFL [BANF1, O75531]")
"below the threshold"
>>> observed_result("PLSPEQPTKL [TRIM50, Q86XT4]")
"below the threshold"
>>> observed_result("FNSYSLTGYV [CLDN2, P57739]")
3.67
>>> observed_result("QGLAERISVL [PRKD2, Q9BZL6]")
"below the threshold"
>>> observed_result("SAKVRTVTSV [RASL11B, Q9BPW5]")
5.92
>>> observed_result("EALLQMESVA [CAVIN3, Q969G5]")
"below the threshold"
>>> observed_result("EVNETDDTKM [KCNJ1, P48048]")
"below the threshold"
>>> observed_result("LRSPRTPSEV [OR10G3, Q8NGC4]")
4.27
>>> observed_result("LPHPHSTTRV [NLGN2, Q8NFZ4]")
4.93
>>> observed_result("TKGPRGPTRV [SAPCD1, Q5SSQ6]")
5.42
